Assay: Restrictive medium S. cerevisiae growth inhibition, OD615, pilot screen of yeast lifespan reduction project, restrictive growth control (AID 706);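 further: modified DeaD lifespan yeast strain shifted to restrictive glucose medium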
Conditions: OD615, 48 h, at 10 µM, hits give high values
measurement-name: growth inhibition (%)
Give bare numbers, in %.

In the examples that follow, each entry is paired with its recorded growth inhibition.
INSERT INTO measurements (compound, reported_result) VALUES
  ('Cc1ccc(NC(=O)CSc2nnc(Cc3cccn3C)n2-c2ccc(F)cc2)c(C)c1', 8.61),
  ('CCC(=O)Nc1c2c(nn1-c1ccc(OC)cc1)CS(=O)C2 (stereo not given)', 5.54);

Give one value of growth inhibition per listed compound.
1. COC(=O)c1ccccc1NC(NC(=O)c1ccco1)C(=O)c1ccc(C)cc1 (stereo not given)
2. COc1ccccc1N=C(C)C1=C(O)CSC1=O
3. Cc1ccc(NS(=O)(=O)c2cc(C(=O)O)ccc2Cl)cc1
4. Clc1ccc(-c2nnc(N3CCCC3)nn2)cc1

(A)
[-5.5, -5.92, -5.51, 4.79]

Give one value of growth inhibition per listed compound.
1. Cc1cc(-n2nc(C)cc2C)nc(NS(=O)(=O)c2ccccc2)n1
2. CC(=O)c1cc(F)c(N2CCN(CCC#N)CC2)cc1C
3. COc1ccc(CN2CCCCC2C(=O)Nc2ccc(OC)c(OC)c2)cc1OC (stereo not given)
4. Cc1ccc(-c2cc3c(nn2)-c2ccccc2C3=O)cc1
5. O=C(CSc1ncccn1)NCCc1ccccc1

(A)
[-20.8, -19.6, -12.6, -5.93, 2.61]

Give one value of growth inhibition per listed compound.
1. CC1(C)CC(=O)c2c(Cc3ccccc3)n[nH]c2C1
2. CCc1ccc(-c2nc(CN3CCCC(C(=O)O)C3)c(C)o2)cc1 (stereo not given)

(A)
-8.27
-4.83

Give one value of growth inhibition per listed compound.
1. CC(=O)NCCn1c(C)cc2ccccc21
2. CC1CCN(c2nc3ccccc3nc2C(C#N)S(=O)(=O)c2ccccc2)CC1 (stereo not given)
3. Cc1cccc(NC(=O)CCNS(=O)(=O)c2cccc3nsnc23)c1

(A)
1: -0.185; 2: -14.6; 3: -12.6
